assay: SPR (Biacore 3000) binding of ochratoxin A-BSA to immobilised peptide or antibody; details: Biacore 3000, CM5 chip, peptide immobilised by amine coupling, ochratoxin A-BSA 0.01–100 mg L^−1, HBS-EP pH 7.4, 25 °C, 1:1 Langmuir model, estimated
pKd: −log10 of the molar value.
measure: pKd

{"substance": "N'-Gly-Pro-Ala-Gly-Ile-Asp-Gly-Pro-Ala-Gly-Ile-Arg-Cys-C' [13-mer peptide]", "measure": "pKd", "observed": 4.80}
{"substance": "N'-Cys-Ser-Ile-Val-Glu-Asp-Gly-Lys-C' [octapeptide]", "measure": "pKd", "observed": 4.93}
